B1: Flag-tagged wild type LRRK2 (leucine-rich repeat kinase 2) [human] / Full length V5-tagged FADD [not stated] (parent complex)
chain 1: MASGSCQGCEEDEETLKKLIVRLNNVQEGKQIETLVQILEDLLVFTYSERASKLFQGKNIHVPLLIVLDSYMRVASVQQVGWSLLCKLIEVCPGTMQSLMGPQDVGNDWEVLGVHQLILKMLTVHNASVNLSVIGLKTLDLLLTSGKITLLILDEESDIFMLIFDAMHSFPANDEVQKLGCKALHVLFERVSEEQLTEFVENKDYMILLSALTNFKDEEEIVLHVLHCLHSLAIPCNNVEVLMSGNVRCYNIVVEAMKAFPMSERIQEVSCCLLHRLTLGNFFNILVLNEVHEFVVKAVQQYPENAALQISALSCLALLTETIFLNQDLEEKNENQENDDEGEEDKLFWLEACYKALTWHRKNKHVQEAACWALNNLLMYQNSLHEKIGDEDGHFPAHREVMLSMLMHSSSKEVFQASANALSTLLEQNVNFRKILLSKGIHLNVLELMQKHIHSPEVAESGCKMLNHLFEGSNTSLDIMAAVVPKILTVMKRHETSLPVQLEALRAILHFIVPGMPEESREDTEFHHKLNMVKKQCFKNDIHKLVLAALNRFIGNPGIQKCGLKVISSIVHFPDALEMLSLEGAMDSVLHTLQMYPDDQEIQCLGLSLIGYLITKKNVFIGTGHLLAKILVSSLYRFKDVAEIQTKGFQTILAILKLSASFSKLLVHHSFDLVIFHQMSSNIMEQKDQQFLNLCCKCFAKVAMDDYLKNVMLERACDQNNSIMVECLLLLGADANQAKEGSSLICQVCEKESSPKLVELLLNSGSREQDVRKALTISIGKGDSQIISLLLRRLALDVANNSICLGGFCIGKVEPSWLGPLFPDKTSNLRKQTNIASTLARMVIRYQMKSAVEEGTASGSDGNFSEDVLSKFDEWTFIPDSSMDSVFAQSDDLDSEGSEGSFLVKKKSNSISVGEFYRDAVLQRCSPNLQRHSNSLGPIFDHEDLLKRKRKILSSDDSLRSSKLQSHMRHSDSISSLASEREYITSLDLSANELRDIDALSQKCCISVHLEHLEKLELHQNALTSFPQQLCETLKSLTHLDLHSNKFTSFPSYLLKMSCIANLDVSRNDIGPSVVLDPTVKCPTLKQFNLSYNQLSFVPENLTDVVEKLEQLILEGNKISGICSPLRLKELKILNLSKNHISSLSENFLEACPKVESFSARMNFLAAMPFLPPSMTILKLSQNKFSCIPEAILNLPHLRSLDMSSNDIQYLPGPAHWKSLNLRELLFSHNQISILDLSEKAYLWSRVEKLHLSHNKLKEIPPEIGCLENLTSLDVSYNLELRSFPNEMGKLSKIWDLPLDELHLNFDFKHIGCKAKDIIRFLQQRLKKAVPYNRMKLMIVGNTGSGKTTLLQQLMKTKKSDLGMQSATVGIDVKDWPIQIRDKRKRDLVLNVWDFAGREEFYSTHPHFMTQRALYLAVYDLSKGQAEVDAMKPWLFNIKARASSSPVILVGTHLDVSDEKQRKACMSKITKELLNKRGFPAIRDYHFVNATEESDALAKLRKTIINESLNFKIRDQLVVGQLIPDCYVELEKIILSERKNVPIEFPVIDRKRLLQLVRENQLQLDENELPHAVHFLNESGVLLHFQDPALQLSDLYFVEPKWLCKIMAQILTVKVEGCPKHPKGIISRRDVEKFLSKKRKFPKNYMSQYFKLLEKFQIALPIGEEYLLVPSSLSDHRPVIELPHCENSEIIIRLYEMPYFPMGFWSRLINRLLEISPYMLSGRERALRPNRMYWRQGIYLNWSPEAYCLVGSEVLDNHPESFLKITVPSCRKGCILLGQVVDHIDSLMEEWFPGLLEIDICGEGETLLKKWALYSFNDGEEHQKILLDDLMKKAEEGDLLVNPDQPRLTIPISQIAPDLILADLPRNIMLNNDELEFEQAPEFLLGDGSFGSVYRAAYEGEEVAVKIFNKHTSLRLLRQELVVLCHLHHPSLISLLAAGIRPRMLVMELASKGSLDRLLQQDKASLTRTLQHRIALHVADGLRYLHSAMIIYRDLKPHNVLLFTLYPNAAIIAKIADYGIAQYCCRMGIKTSEGTPGFRAPEVARGNVIYNQQADVYSFGLLLYDILTTGGRIVEGLKFPNEFDELEIQGKLPDPVKEYGCAPWPMVEKLIKQCLKENPQERPTSAQVFDILNSAELVCLTRRILLPKNVIVECMVATHHNSRNASIWLGCGHTDRGQLSFLDLNTEGYTSEEVADSRILCLALVHLPVEKESWIVSGTQSGTLLVINTEDGKKRHTLEKMTDSVTCLYCNSFSKQSKQKNFLLVGTADGKLAIFEDKTVKLKGAAPLKILNIGNVSTPLMCLSESTNSTERNVMWGGCGTKIFSFSNDFTIQKLIETRTSQLFSYAAFSDSNIITVVVDTALYIAKQNSPVVEVWDKKTEKLCGLIDCVHFLREVMVKENKESKHKMSYSGRVKTLCLQKNTALWIGTGGGHILLLDLSTRRLIRVIYNFCNSVRVMMTAQLGSLKNVMLVLGYNRKNTEGTQKQKEIQSCLTVWDINLPHEVQNLEKHIEVRKELAEKMRRTSVE
chain 2: MDPFLVLLHSVSSSLSSSELTELKFLCLGRVGKRKLERVQSGLDLFSMLLEQNDLEPGHTELLRELLASLRRHDLLRRVDDFEAGAAAGAAPGEEDLCAAFNVICDNVGKDWRRLARQLKVSDTKIDSIEDRYPRNLTERVRESLRIWKNTEKENATVAHLVGALRSCQMNLVADLVQEVQQARDLQNRSGAMSPMSWNSDASTSEAS

Variants of: B1
Protocol details: co-immunoprecipitation (M2-Flag resin), quantified Western blot band intensity; HEK293T cells; Flag-LRRK2 and V5-FADD at a ratio of 4:1; three independent experiments; parent: 1; read off a plot
Test readout: response

- Mutant id: "chain 1 A211V"
  response: "~1.7 norm. to Flag IP"
- Mutant id: "chain 1 G2019S"
  response: "~1.3 norm. to Flag IP"
- Mutant id: "chain 1 I2020T"
  response: "~1.6 norm. to Flag IP"
- Mutant id: "chain 1 K544E"
  response: "~1 norm. to Flag IP"
- Mutant id: "chain 1 R1441C"
  response: "~1.1 norm. to Flag IP"

Proceeding to the next variant to report its response.
Please fill in: response reported for chain 1 T1410M = ~2 norm. to Flag IP
